test system: HEK-293T; assay: Incucyte cell viability with HEK293T; type: toxicity, cell-based; conditions: human, 18 h, 10 µM, compound concentration 10 uM, replicate number 1; note: unitless GR value; below 1 slowed growth and below 0 cell loss
For each record, write down the corresponding Growth Rate.

Cn1nccc1-c1ccc(Sc2cccc(C3(C(N)=O)CCOCC3)c2)cc1 0.29

For every record below, what is its Growth Rate?
1. COc1cc(-c2cc3ncccc3c(OC[C@H]3CNC(=O)C3)n2)cc(OC)c1OC1CCOCC1.O=C(O)C(F)(F)F
2. COCCCS(=O)(=O)c1cc(C)c(-c2ccc(F)c3c2CC[C@H]3Oc2ccc3c(c2)OC[C@H]3CC(=O)O)c(C)c1
3. Cc1nnsc1C(=O)Nc1ccc(-n2nc(C(F)(F)F)cc2C(F)(F)F)cc1
4. CN[C@@H](C)C(=O)N[C@H](C(=O)N1CCC[C@H]1c1nc(C(=O)c2ccc(F)cc2)cs1)C1CCCCC1
5. NC(=O)c1cc(-c2ccnc(NC3CCCCC3)c2)nc(N2CCNCC2)c1

A:
[0.25, 0.82, 0.7, 0.53, 0.8]

###

system: HEK-293T; test: Incucyte cell viability with HEK293T; type: toxicity, cell-based; conditions: human, 6 h, 10 µM, compound concentration 10 uM, replicate number 2; note: unitless GR value; below 1 slowed growth and below 0 cell loss
MEASUREMENT_KIND: Growth Rate
Give bare numbers.

COMPOUND	Growth Rate
O=C(O)c1ccc(S(=O)(=O)N(Cc2ccc(OC(F)(F)F)cc2)c2ncc(C(F)(F)F)cc2Cl)cc1	0.33
CC(C)(C#Cc1ccc(NC(=O)COc2ccccc2C(=O)c2ccccc2)c(Cl)c1)C(=O)O	0.41

For every record below, what is its Growth Rate?
1. O=C(CNC(=O)c1ccc(-c2ccccc2)cc1)NC1CCCc2ccccc21 (stereo not drawn)
2. CCNc1ccc(-c2nn(-c3ccccc3C)c3c2C(C)Cc2nc(NC(=O)OC)sc2-3)cn1.O=C(O)C(F)(F)F (stereo not drawn)
3. CC(=O)c1ccc2c(c1)/C(=C(/Nc1cccc(C#N)c1)c1ccc3c(c1)OCCO3)C(=O)N2
4. CC(C)(C)OC(=O)CN(Cc1ccc(Cl)cc1)Cc1ccc([N+](=O)[O-])s1
5. COC1(C#Cc2ccc(Cl)c(-c3ncc4c(n3)-c3sc(NC(C)=O)nc3CC4)c2)CCN(C)CC1
6. C[C@@H]1COCCN1c1cc(=O)n2c(n1)N(Cc1cncc(Cl)c1)[C@H](C(F)(F)F)CC2

A:
1. 0.73
2. 0.14
3. 0.65
4. 0.58
5. -0.37
6. -0.11

###

test system: Fibroblast; assay: Incucyte cell viability with human fibroblast; assay type: toxicity, cell-based; conditions: 12 h, 10 µM, compound concentration 10 uM, replicate number 2; note: unitless GR value; below 1 slowed growth and below 0 cell loss
# label = YES if Growth Rate < 0.5 else NO

Q: Does the reported Growth Rate of the following compound sit strictly below 0.5? "O=C(NCc1cccnc1OCC(F)(F)F)c1cncc(-c2ccc(Cl)cc2)c1"
A: NO

Q: Does the reported Growth Rate of the following compound sit strictly below 0.5? CC(=O)Nc1c(F)cc(C(=O)N[C@H]2CC[C@H](O)CC2)cc1O[C@@H](C)c1ccccc1 [GSK046]
A: NO

###

For each record, write down the corresponding Growth Rate.
test system: Fibroblast; experiment: Incucyte cell viability with human fibroblast; assay type: toxicity, cell-based; settings: 6 h, 10 µM, compound concentration 10 uM, replicate number 1; note: unitless GR value; below 1 slowed growth and below 0 cell loss
Numbers only.

Known results for compounds:
COMPOUND	VALUE
Cc1nn(-c2ccccc2)c(Nc2ccccc2C(=O)O)c1-c1cc2nccnc2c(F)c1F	0.39
CC(C)CC(=O)Nc1cncc(-c2ccc3[nH]nc(-c4nc5c(-c6cccc(F)c6)cncc5[nH]4)c3c2)c1 [LORECIVIVINT]	-1
Cc1c(N2CCCC2)nc2ccc(Br)cc2c1C(=O)NC[C@H](CCC(=O)O)c1ccccc1Cl.Cl.O	0.4
Cc1cn(CCN2CCN(c3ccccc3-c3cc(C#N)cc(C(=O)NCCCN4CCCC4)c3)CC2)c2ccccc12	-0.88
CC[C@H](CC(=O)O)n1c(=O)c2ncccc2n(Cc2cn(C)c3cc(C)cc(C)c23)c1=O [BI-1942]	0.14
COc1ccccc1Nc1nc(-c2nn(Cc3c(F)cc(OCCCO)cc3F)c3ccccc23)ncc1OC	0.3
CC1(C)CCC(CN2CCN(c3ccc(C(=O)NS(=O)(=O)c4ccc(NCC5CCOCC5)c([N+](=O)[O-])c4)c(Oc4cnc5[nH]ccc5c4)c3)CC2)=C(c2ccc(Cl)cc2)C1 [VENETOCLAX]	0.5
CO[C@H](C)CN1CC[C@@]2(C)c3ccc(O)cc3C[C@@H]1C2(C)C.Cl	0.46
FC(F)(F)c1ccc(Nc2ncnc3cc(-c4ncccc4C(F)(F)F)ccc23)cc1 [NGD-8243]	0.97
CC(Sc1nc2c(cnn2-c2cccc(Cl)c2)c(=O)[nH]1)C(N)=O (stereo not given)	0.44

For every record below, what is its Growth Rate?
1. FC(F)(F)c1ccc(CNc2ccc(Cc3c[nH]c4ncc(Cl)cc34)cn2)cn1 [PEXIDARTINIB]
2. CCC(F)(F)c1cc(N2CCC(S(C)(=O)=O)CC2)nc2sc(C(N)=O)c(N)c12 [BI-605906]
3. COc1ccc(-n2nc3c4ccccc4[nH]cc-3c2=O)cc1
4. CCCc1c(OCCCOc2ccc(OCC(=O)O)cc2)ccc(C(C)=O)c1O
5. CCn1c(-c2nc3cc(C(=O)N4CCCC(N)C4)ccc3n2C)cc2ccccc21.Cl (stereo not given)

A:
1: 0.64; 2: 0.8; 3: -0.1; 4: 0.58; 5: -0.88

For every record below, what is its Growth Rate?
1. c1cc(-c2cnn3cc(-c4ccc(N5CCNCC5)cc4)cnc23)c2cccnc2c1
2. CN(C)CCC[C@@]1(c2ccc(F)cc2)OCc2cc(C#N)ccc21 [ESCITALOPRAM]

A:
[-0.19, 0.67]

For every record below, what is its Growth Rate?
1. COc1ccc(-c2cc3c(C)nc(N)nc3n([C@H]3CC[C@H](OCCO)CC3)c2=O)cn1 [PF-04691502]
2. COCCCS(=O)(=O)c1cc(C)c(-c2ccc(F)c3c2CC[C@H]3Oc2ccc3c(c2)OC[C@H]3CC(=O)O)c(C)c1

A:
1. 0.8
2. 1

For every record below, what is its Growth Rate?
1. Cl.O=C(c1ccc(-c2ccc(Cl)cc2)o1)N(Cc1ccccn1)c1ccc(N2CCNCC2)cc1
2. CS(=O)(=O)NCC[C@H](NC(=O)c1cncc2c1cnn2-c1ccc(F)cc1)c1ccnc(S(C)(=O)=O)c1 [BI 9307]
3. O=C1NC(c2cccc([N+](=O)[O-])c2)=CCN1c1ccccc1O [ICILLIN]
4. CCOC(=O)Nc1ccc2c(c1)N(C(=O)CN(CC)CC)c1ccccc1CC2
5. CC(=O)Nc1nc(CN2CCC[C@H](Cc3cc(C)nc(C)c3)C2)cs1 [JNJ-73924149]
6. C[C@@H](CN1CC[C@@]2(C)c3cccc(O)c3C[C@@H]1C2(C)C)OCc1ccccc1.Cl
7. C[C@H](CCC(=O)[O-])[C@H]1CC[C@H]2[C@@H]3[C@@H](O)C[C@@H]4C[C@H](O)CC[C@]4(C)[C@H]3CC[C@]12C.[Na+]
8. CN1CCN(c2nc(N)c3ccccc3n2)CC1

A:
1: -0.62; 2: 0.89; 3: -0.8; 4: 0.29; 5: 0.58; 6: 0.03; 7: 0.88; 8: 0.45
